# Tested on: MSU LN 11 De novo B-cell lymphoma lymph node cells
# assayInfo: Cell Proliferation Inhibitory Assay, ex vivo canine lymphoma nodal tissue MSU LN 11
# Format: cell-based
# conditionParameters: Canis lupus familiaris; Canine MSU LN 11, De novo B-cell lymphoma; LPS + ConA
# Description: […] Cells cultured in medium described above were plated in 96-well Costar plates (Corning) at a density of 1×10^3 cells/well (feline cell lines) or 2×10^5 cells/well (lymph node cells) and exposed to various concentrations of test compounds for up to 5 days at 37° C. in a humidified incubator with 5% CO2. Effects on proliferation were determined using the CellTiter 96® AQueous Non-Radioactive Cell Proliferation Assay (Promega) according to manufacturer's instructions. […]
readoutLabel: IC50 (nM)

compound	readoutLabel	measuredValue
CNS(=O)(=O)C[C@H]1CC[C@H](N(C)c2ncnc3[nH]ccc23)CC1 [Example 1a]	IC50	64

----------
# testTarget: Recombinant JAK-1 (GST-JAK-1 (852-1142)) (Homo sapiens (Human))
# Sequence (P23458 852-1142): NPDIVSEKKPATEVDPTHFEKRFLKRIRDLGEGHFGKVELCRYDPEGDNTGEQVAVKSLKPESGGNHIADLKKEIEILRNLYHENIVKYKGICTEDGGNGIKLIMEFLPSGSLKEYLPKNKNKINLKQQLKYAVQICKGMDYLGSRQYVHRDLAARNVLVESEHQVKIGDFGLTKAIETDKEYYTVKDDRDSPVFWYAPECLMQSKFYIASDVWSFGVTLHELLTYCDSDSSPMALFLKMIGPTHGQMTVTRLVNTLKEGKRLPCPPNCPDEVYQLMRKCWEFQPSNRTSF
# assayInfo: JAK Enzymatic Assay (peptide mobility shift), JAK-1
# conditionParameters: ATP 40 micromolar, IRS-1 peptide, 240 minutes
pIC50: −log10 of the molar value.
Each entry below lists one item and its recorded pIC50 value.

structureString	pIC50
CN(c1ncnc2[nH]ccc12)[C@H]1CC[C@H](CS(=O)(=O)NC2CCC2)CC1	7.35
CNS(=O)(=O)C[C@H]1CC[C@H](N(C)c2ncnc3[nH]ccc23)CC1	8.02

----------
# System: MSU LN 8 De novo T-cell lymphoma lymph node cells
# assayInfo: Cell Proliferation Inhibitory Assay, ex vivo canine lymphoma nodal tissue MSU LN 8
# Format: cell-based
# conditionParameters: Canis lupus familiaris, Canine MSU LN 8, De novo T-cell lymphoma, LPS + ConA
# Experimental: […] Cells cultured in medium described above were plated in 96-well Costar plates (Corning) at a density of 1×10^3 cells/well (feline cell lines) or 2×10^5 cells/well (lymph node cells) and exposed to various concentrations of test compounds for up to 5 days at 37° C. in a humidified incubator with 5% CO2. Effects on proliferation were determined using the CellTiter 96® AQueous Non-Radioactive Cell Proliferation Assay (Promega) according to manufacturer's instructions. […]

structureString	testTarget	IC50 [nM]
CNS(=O)(=O)C[C@H]1CC[C@H](N(C)c2ncnc3[nH]ccc23)CC1	MSU LN 8 De novo T-cell lymphoma lymph node cells	357

----------
# testTarget: Recombinant JAK-2 (Homo sapiens (Human))
# Sequence (O60674 808-1132): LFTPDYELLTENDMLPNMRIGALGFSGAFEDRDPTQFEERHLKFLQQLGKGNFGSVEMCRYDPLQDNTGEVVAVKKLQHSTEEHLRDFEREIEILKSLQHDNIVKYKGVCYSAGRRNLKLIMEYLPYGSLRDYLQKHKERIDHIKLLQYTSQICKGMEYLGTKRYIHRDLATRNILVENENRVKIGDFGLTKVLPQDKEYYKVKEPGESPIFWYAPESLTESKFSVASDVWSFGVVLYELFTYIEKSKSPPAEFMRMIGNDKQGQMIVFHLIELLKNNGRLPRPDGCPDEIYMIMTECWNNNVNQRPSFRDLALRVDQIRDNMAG
# conditionParameters: read-out: JAK-2 IC50; ATP 4 micromolar, JAKtide, 150 minutes
pIC50: −log10 of the molar value.
Each entry below lists one item and its recorded pIC50 value.

structureString	testTarget	pIC50
CN(c1ncnc2[nH]ccc12)[C@H]1CC[C@H](CS(=O)(=O)NC2CCC2)CC1	Recombinant JAK-2 (Homo sapiens (Human))	7.00
CNS(=O)(=O)C[C@H]1CC[C@H](N(C)c2ncnc3[nH]ccc23)CC1	Recombinant JAK-2 (Homo sapiens (Human))	7.76
